Where do these numbers come from? They come from patent US11008313B2.

# TARGET_DESC: PCSK9 (Homo sapiens, UniProt Q8NBP7)
# Sequence (Q8NBP7 153-692): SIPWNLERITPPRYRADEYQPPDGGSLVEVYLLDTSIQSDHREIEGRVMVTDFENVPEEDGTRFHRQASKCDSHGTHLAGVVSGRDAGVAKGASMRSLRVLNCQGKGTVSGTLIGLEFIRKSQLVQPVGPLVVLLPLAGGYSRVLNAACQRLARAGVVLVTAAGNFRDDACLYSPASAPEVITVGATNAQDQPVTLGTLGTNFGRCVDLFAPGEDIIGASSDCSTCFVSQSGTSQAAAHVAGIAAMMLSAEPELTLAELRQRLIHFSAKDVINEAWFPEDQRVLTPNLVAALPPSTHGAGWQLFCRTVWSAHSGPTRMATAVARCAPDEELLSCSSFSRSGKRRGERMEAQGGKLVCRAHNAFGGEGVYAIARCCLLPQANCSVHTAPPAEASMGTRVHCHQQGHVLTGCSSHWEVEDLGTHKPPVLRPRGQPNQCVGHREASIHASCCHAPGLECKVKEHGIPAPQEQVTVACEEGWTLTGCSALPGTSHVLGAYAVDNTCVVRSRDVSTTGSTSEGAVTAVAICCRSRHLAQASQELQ
# PROTOCOL_DETAILS: Differential scanning calorimetry (DSC) assay, direct binding / thermal stabilization of PCSK9
# CONDITIONS: Tm(with compound)−Tm(no compound); 2 μM PCSK9, 300 μM test compound
# Method: Differential scanning calorimetry (DSC) was used as a biophysical method to confirm direct binding to PCSK9. A solution containing 2 μM PCSK9 with or without 300 μM test compound in 25 mM HEPES (pH 7.5)/150 mM NaCl/1 mM CaCl2/3.75% DMSO was transferred to the sample cell of the DSC instrument, while buffer alone was placed in the reference cell. […] Each thermogram was analyzed to provide the melting temperature (Tm) of the protein. […]
Rule for this label: MET means ΔTm at 300 µM is less than 7 °C; NOT MET means ΔTm at 300 µM is at least 7 °C.

• COc1cccc(NC(=O)C[C@@]2(C)NCCc3cc(OCC4CCCCO4)c(Oc4ccc(Br)c(F)c4)cc32)c1 (stereo partly shown) [Example 86] = MET
• C[C@]1(CC(=O)Nc2nccs2)NCCc2cc(OCC3CCCCO3)c(Oc3ccc(C(=O)Nc4n[nH]c5ncccc45)c(F)c3)cc21 (single isomer, unassigned) [Example 75] = MET
• C[C@]1(CC(=O)Nc2cccc3[nH]ccc23)NCCc2cc(OCC3CCCCO3)c(Oc3ccc(-c4ccc(C(=O)O)cc4)c(F)c3)cc21 (stereo partly shown) [Example 92] = NOT MET
• COc1cc2c(cc1Oc1ccnc(F)c1)[C@@](C)(CC(=O)Nc1nccs1)NCC2 [Example 7] = MET
• C[C@]1(CC(=O)Nc2nccs2)NCCc2cc(OCc3ncccn3)c(Oc3ccc(-c4ccc(C(=O)O)cc4)c(F)c3)cc21 [Example 19] = NOT MET
• COC(=O)c1cc(-c2ccc(Oc3cc4c(cc3OC)CCN[C@]4(C)CC(=O)Nc3nccs3)cn2)c[nH]1 [Example 17] = MET
• COc1cc2c(cc1Oc1ccc(-c3ccc(CC(=O)O)cc3)c(F)c1)[C@@](C)(CC(=O)Nc1nccs1)NCC2 [Example 31] = MET
• COc1cccc(NC(=O)C[C@@]2(C)NCCc3cc(OCC4CCCCO4)c(Oc4ccc(-c5ccc(C(=O)O)cc5)c(F)c4)cc32)c1 (stereo partly shown) [Example 85] = NOT MET
• COc1cc2c(cc1Oc1ccc(-c3ccc(CCC(=O)O)cc3)c(F)c1)[C@@](C)(CC(=O)Nc1nccs1)NCC2 [Example 32] = MET
• COc1cc2c(cc1Oc1ccc(-c3ccc(C(=O)O)cc3)cc1)[C@@](C)(CC(=O)Nc1nccs1)NCC2 [Example 26] = MET
• C[C@]1(CC(=O)Nc2nccs2)NCCc2cc(OCCn3cc(C4(C(=O)O)CC4)nn3)c(Oc3ccc(C(=O)O)c(F)c3)cc21 [Example 48] = MET
• COc1cccc(NC(=O)C[C@@]2(C)NCCc3cc(OCC4CCCCO4)c(Oc4ccc(-c5ccc(C(=O)O)cc5)c(F)c4)cc32)n1 (stereo partly shown) [Example 90] = NOT MET
